TGT: Peroxisome proliferator-activated receptor gamma (Homo sapiens)
PROTOCOL: Binding affinity to PPARgamma (unknown origin) at 10 uM by Polarscreen competitor assay relative to rosiglitazone
EXPERIMENTAL_ENDPOINT: Imax

N#Cc1ccc(S(=O)(=O)Nc2cnc(OC3CCN(c4ccccc4)CC3)c(Cl)c2)cc1; 37%
COc1ccc(S(=O)(=O)Nc2cnc(OC3CCN(c4ccccc4)CC3)c(Cl)c2)c(OC)c1; 51%
O=S(=O)(Nc1cnc(OC2CCN(c3ccccc3)CC2)c(Cl)c1)c1ccc(F)c(Cl)c1; 79%
CN(CCOc1ncc(NS(=O)(=O)c2ccc(Cl)cc2Cl)cc1Cl)c1nc2ccccc2o1; 82%
O=S(=O)(Nc1cnc(OC2CCN(c3ccccc3)CC2)c(Cl)c1)c1ccc(-c2ccccn2)s1; 76%
O=S(=O)(Nc1cnc(OC2CCN(c3ccccc3)CC2)c(Cl)c1)c1ccc(C(F)(F)F)cc1; 98%
COc1ccc(S(=O)(=O)Nc2cnc(OC3CCN(c4ccccc4)CC3)c(Cl)c2)cc1; 47%
CN(CCOc1ccc(NS(=O)(=O)c2ccc(Cl)c(Cl)c2)cn1)c1nc2ccccc2o1; 78%
Cc1ccccc1S(=O)(=O)Nc1cnc(OC2CCN(c3ccccc3)CC2)c(Cl)c1; 72%
O=S(=O)(Nc1cnc(OC2CCN(c3ccccc3)CC2)c(Cl)c1)c1ccc(F)cc1F; 78%
O=S(=O)(Nc1cnc(OC2CCN(c3ccccc3)CC2)c(Cl)c1)c1ccc(Cl)cc1Cl; 79%
